Source: patent US10005846B2

Tested on: Cynomolgus TG2
Method description: Biacore (SPR) affinity, cynomolgus TG2
Assay type: binding, cynomolgus monkey
Test settings: +Ca^2+ (1 mM CaCl2 running buffer; includes rows without a Ca mark)
As shown below, each of these molecules has a reported koff value.
Express it in s⁻¹; write the number only.

[Q] Recorded koff for hAB005: humanised AB1 antibody; heavy chain version RHA with light chain version RKJ (antibody, V domains shown) VH: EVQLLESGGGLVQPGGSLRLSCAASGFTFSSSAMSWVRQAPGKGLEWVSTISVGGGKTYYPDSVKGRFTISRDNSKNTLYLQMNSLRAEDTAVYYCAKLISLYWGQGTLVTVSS VL: DIQMTQSPSSLSASVGDRVTITCKASQDINSYLTWFQQKPGKAPKSLIYRTNRLFDGVPSRFSGSGSGTDFFLTISSLQPEDFATYYCLQYDDFPYTFGQGTKVEIK , please?
[A] 3.4e-05

[Q] Note, next up: hBB001BB: humanised BB7 antibody (heavy chain hBB001HB, light chain hBB001KB by name) (antibody, V domains shown) VH: EVQLLESGGGLVQPGGSLRLSCAASGIIFSSSAMSWVRQAPGKGLEWVATISSGGRSTYYPDSVKGRFTVSRDSSKNTLYLQMNSLRAEDTAVYYCAKLISPYWGQGTLVTVSS VL: DIKMTQSPSSLSASVGDRVTITCKASQDINSYLTWFQQKPGKAPKTLIYLTNRLMDGVPSRFSGSGSGQEFLLTISSLQPEDFATYYCLQYVDFPYTFGQGTKVEIK
[A] 3.7e-05
